The values you see were collected from paper PMC7700809.

Assay: in vivo
Details: mouse, iv, 1 mg/kg, T1/2, mice, I.V. 1 mg/kg, Liver
reported.metric: half-life (h)
Use h as the unit, but write only the number.

Answer with the recorded half-life of "CC[C@H]1CN2CCc3cc(OC)c(OC)cc3[C@@H]2C[C@@H]1C[C@H]1NCCc2cc(OC)c(OC)cc21" only.
17.3

----------
Experiment: In vivo plasma pharmacokinetics in rats
Set-up: species or system Sprague-Dawley rats
Details: Sprague-Dawley, po, Rat, P.O. 10 mg/kg
reported.metric: Cmax (ng/mL)
Use ng/mL as the unit, but write only the number.

Answer with the recorded Cmax of "CC[C@H]1CN2CCc3cc(OC)c(OC)cc3[C@@H]2C[C@@H]1C[C@H]1NCCc2cc(OC)c(OC)cc21" only.
12.2
